Data provenance: ChEMBL document CHEMBL3351371

- System: Poly(ADP-ribose) glycohydrolase (Rattus norvegicus, UniProt Q9QYM2)
- Sequence (Q9QYM2 whole entry): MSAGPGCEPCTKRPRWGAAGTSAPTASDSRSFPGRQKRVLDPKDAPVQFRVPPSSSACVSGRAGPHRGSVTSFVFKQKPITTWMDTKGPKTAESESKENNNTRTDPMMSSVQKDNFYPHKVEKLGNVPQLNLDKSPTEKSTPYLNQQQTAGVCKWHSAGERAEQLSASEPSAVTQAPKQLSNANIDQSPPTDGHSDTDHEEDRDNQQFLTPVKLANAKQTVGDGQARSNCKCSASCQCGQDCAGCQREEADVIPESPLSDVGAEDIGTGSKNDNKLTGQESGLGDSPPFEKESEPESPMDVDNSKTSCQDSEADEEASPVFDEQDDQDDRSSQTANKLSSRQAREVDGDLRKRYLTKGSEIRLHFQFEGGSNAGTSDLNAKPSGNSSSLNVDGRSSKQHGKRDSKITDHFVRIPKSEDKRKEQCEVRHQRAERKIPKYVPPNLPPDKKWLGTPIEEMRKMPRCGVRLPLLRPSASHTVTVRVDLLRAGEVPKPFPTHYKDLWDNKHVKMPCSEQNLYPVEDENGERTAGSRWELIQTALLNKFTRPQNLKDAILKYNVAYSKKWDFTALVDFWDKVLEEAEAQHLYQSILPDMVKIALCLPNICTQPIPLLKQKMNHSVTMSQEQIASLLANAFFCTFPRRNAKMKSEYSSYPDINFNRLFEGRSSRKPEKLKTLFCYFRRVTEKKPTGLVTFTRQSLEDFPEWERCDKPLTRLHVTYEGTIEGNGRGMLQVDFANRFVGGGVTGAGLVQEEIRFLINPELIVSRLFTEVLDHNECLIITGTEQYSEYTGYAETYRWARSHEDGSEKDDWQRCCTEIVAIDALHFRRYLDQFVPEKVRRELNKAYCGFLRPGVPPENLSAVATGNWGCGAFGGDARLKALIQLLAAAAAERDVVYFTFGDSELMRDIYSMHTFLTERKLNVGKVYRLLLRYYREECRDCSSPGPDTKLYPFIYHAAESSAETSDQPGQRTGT
- Run description: Inhibition of rat testis GST-tagged PARG catalytic activity after 30 mins using [32P]poly(ADP-ribose) by radioassay
Parameter measured: log10 of IC50 (log10 of the value in µM)
Kindly note that the scale is log10 and the underlying IC50 is in µM.

Completed entries (count: 3):
{"Molecule smiles": "O=C(N/N=C/c1ccc(O)c(O)c1O)C(=O)N/N=C/c1ccc(O)c(O)c1O", "log10 of IC50": 0.49}
{"Molecule smiles": "O=C(CCC(=O)N/N=C/c1ccc(O)c(O)c1O)N/N=C/c1ccc(O)c(O)c1O", "log10 of IC50": 0.99}
{"Molecule smiles": "O=C(N/N=C/c1cc(O)c(O)c(O)c1)c1ccc(C(=O)N/N=C/c2cc(O)c(O)c(O)c2)cc1", "log10 of IC50": 0.32}

Ask | Endpoint output: log10 of IC50 of `O=C(N/N=C/c1cc(O)c(O)c(O)c1)C(=O)N/N=C/c1cc(O)c(O)c(O)c1` . Value?
Reply | 0.45

Ask | Endpoint output: log10 of IC50 of `O=C(N/N=C/c1ccc(O)c(O)c1)c1cccc(C(=O)N/N=C/c2ccc(O)c(O)c2)c1` . Value?
Reply | 1.28

Ask | Endpoint output: log10 of IC50 of `O=C(CCC(=O)N/N=C/c1cc(O)c(O)c(O)c1)N/N=C/c1cc(O)c(O)c(O)c1` . Value?
Reply | 0.91

Ask | Endpoint output: log10 of IC50 of `O=C(N/N=C/c1ccc(O)cc1O)c1cccc(C(=O)N/N=C/c2ccc(O)cc2O)c1` . Value?
Reply | 1.60

Ask | Endpoint output: log10 of IC50 of `O=C(CCCC(=O)N/N=C/c1ccc(O)c(O)c1O)N/N=C/c1ccc(O)c(O)c1O` . Value?
Reply | 1.14

Ask | Endpoint output: log10 of IC50 of `O=C(O)CCN1C(=O)/C(=C2\C(=O)c3cc(Br)ccc3N2Cc2c(Cl)cccc2Cl)SC1=S` . Value?
Reply | 0.46

Ask | Endpoint output: log10 of IC50 of `O=C(N/N=C/c1c(O)cc(O)cc1O)c1ccc(C(=O)N/N=C/c2c(O)cc(O)cc2O)cc1` . Value?
Reply | 1.00
